Source: patent US20250223306A1

Tested on: NCI-H28 cells
Experiment: Proliferation, Cell Titer One assay
Format: cell-based
Settings: 6 days
pIC50: −log10 of the molar value.
Reported pIC50 values for a set of compounds

C[C@H](NC(=O)c1cnc2c(C3=CC[C@@H](C(F)(F)F)CC3)cccc2c1)c1ncco1 (single isomer, unassigned) [Compound 22]    < 6.00
C[C@H](NC(=O)c1cnc2c(C3=CC[C@@H](C(F)(F)F)CC3)cccc2c1)c1ncco1 (single isomer, unassigned) [Compound 21]    < 6.00

Find the recorded pIC50 belonging to C[C@H](NC(=O)c1cnc2c(C3=CC[C@@H](C(F)(F)F)CC3)cccc2c1)c1ncco1 (single isomer, unassigned) [Compound 20] and report it.
< 6.00

###

Target: TEAD4 (Homo sapiens)
Sequence (Q15561 whole entry): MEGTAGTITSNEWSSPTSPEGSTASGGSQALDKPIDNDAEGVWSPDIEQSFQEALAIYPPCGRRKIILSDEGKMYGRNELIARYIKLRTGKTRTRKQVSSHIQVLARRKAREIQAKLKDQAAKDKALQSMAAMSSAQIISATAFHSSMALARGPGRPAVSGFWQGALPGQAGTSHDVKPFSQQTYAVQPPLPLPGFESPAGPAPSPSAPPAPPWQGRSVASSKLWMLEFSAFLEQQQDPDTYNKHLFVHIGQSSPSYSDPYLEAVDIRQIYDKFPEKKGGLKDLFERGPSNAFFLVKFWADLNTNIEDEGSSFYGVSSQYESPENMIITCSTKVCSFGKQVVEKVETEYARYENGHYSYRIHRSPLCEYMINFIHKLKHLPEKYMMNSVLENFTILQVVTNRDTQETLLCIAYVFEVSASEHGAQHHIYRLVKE
Assay: TEAD thermal shift assay (TSA)
Assay type: binding
Details: ratio of protein to compound 1:1
Recorded TEAD4 ΔTm values for a group of compounds are listed next.
Provide only the numeric value, understood in °C.

CNS(=O)(=O)c1ccc(Nc2ccc(C(F)(F)F)cc2)c(-c2cn(C)cn2)c1 [Compound 1-1, reference compound]    0
COc1cc(C2=CCC(C(F)(F)F)CC2)c2ncc(C(=O)N[C@H](C)c3ncco3)cc2c1 (some centres unmarked) [Compound 109]    1

// TEAD4 ΔTm lookup, key: O=C(NCc1ccn[nH]1)c1cnc2c(C3=CCC(C(F)(F)F)CC3)cccc2c1 (centres unmarked) [Compound 47]
3

Also need C[C@H](NC(=O)c1ccc2c(-c3ccc(C(F)(F)F)cc3)cccc2c1)c1cccc(N)n1 [Compound 1-4, reference compound] , thanks.
5

How about COc1cc(C2=CCC(C(F)(F)F)CC2)c2ncc(C(=O)N[C@H](C)CO)cc2c1 (some centres unmarked) [Compound 110] ?
2

###

Target: TEAD2 (Homo sapiens)
Assay: TEAD thermal shift assay (TSA)
Assay type: binding
Conditions: ratio of protein to compound 1:1
Quick list: TEAD2 ΔTm per entry.
Provide the reading as a plain figure in °C.

C[C@H](CO)NC(=O)c1cnc2c(C3=CCC(C(F)(F)F)CC3)cccc2c1 (some centres unmarked) [Compound 7]    2
C[C@H](NC(=O)c1cnc2c(C3=CC[C@@H](C(F)(F)F)CC3)cccc2c1)c1ncco1 (single isomer, unassigned) [Compound 20]    1
CNS(=O)(=O)c1ccc(Nc2ccc(C(F)(F)F)cc2)c(-c2cn(C)cn2)c1 [Compound 1-1, reference compound]    1
C[C@H](NC(=O)c1cnc2c(C3=CC[C@@H](C(F)(F)F)CC3)cccc2c1)c1ncco1 (single isomer, unassigned) [Compound 19]    2

Here is the next item to consider.
Would you mind telling me what TEAD2 ΔTm value was observed for O=C(NCc1ncco1)c1cnc2c(C3=CCC(C(F)(F)F)CC3)cccc2c1 (centres unmarked) ?
3

###

Molecular target: TEAD1 (Homo sapiens)
Sequence (P28347 whole entry): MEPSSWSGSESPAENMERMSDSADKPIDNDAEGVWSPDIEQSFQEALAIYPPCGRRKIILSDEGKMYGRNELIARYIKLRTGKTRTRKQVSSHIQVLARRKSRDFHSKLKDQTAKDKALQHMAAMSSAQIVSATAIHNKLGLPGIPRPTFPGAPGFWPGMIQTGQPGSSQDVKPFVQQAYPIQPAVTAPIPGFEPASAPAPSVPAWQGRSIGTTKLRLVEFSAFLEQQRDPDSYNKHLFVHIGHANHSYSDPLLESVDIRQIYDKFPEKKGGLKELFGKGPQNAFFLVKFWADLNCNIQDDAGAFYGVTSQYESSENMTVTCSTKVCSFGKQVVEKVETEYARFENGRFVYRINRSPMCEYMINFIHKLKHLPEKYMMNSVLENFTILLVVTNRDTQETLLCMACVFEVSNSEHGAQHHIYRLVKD
Assay: TEAD thermal shift assay (TSA)
Assay type: binding
Conditions: ratio of protein to compound 1:1
Observable: TEAD1 ΔTm (°C)
// note: answer is a bare numeric in °C

Sample records with TEAD1 ΔTm:
CNS(=O)(=O)c1ccc(Nc2ccc(C(F)(F)F)cc2)c(-c2cn(C)cn2)c1 [Compound 1-1, reference compound]    2
C[C@H](NC(=O)c1ccc2c(-c3ccc(C(F)(F)F)cc3)cccc2c1)c1cccc(N)n1 [Compound 1-4, reference compound]    10

GET /values?readout=TEAD1 ΔTm&system=TEAD1 (Homo sapiens)&item= C[C@H](NC(=O)c1cnc2c(C3=CCC(C(F)(F)F)CC3)cccc2c1)c1ccccn1 (stereo partly shown)
10

And the next one, C[C@H](CO)NC(=O)c1cnc2c(C3=CCC(C(F)(F)F)CC3)cccc2c1 (single isomer, unassigned) [Compound 81] ?
9

###

Biological target: TEAD2 (Homo sapiens, UniProt Q15562)
Sequence (Q15562 whole entry): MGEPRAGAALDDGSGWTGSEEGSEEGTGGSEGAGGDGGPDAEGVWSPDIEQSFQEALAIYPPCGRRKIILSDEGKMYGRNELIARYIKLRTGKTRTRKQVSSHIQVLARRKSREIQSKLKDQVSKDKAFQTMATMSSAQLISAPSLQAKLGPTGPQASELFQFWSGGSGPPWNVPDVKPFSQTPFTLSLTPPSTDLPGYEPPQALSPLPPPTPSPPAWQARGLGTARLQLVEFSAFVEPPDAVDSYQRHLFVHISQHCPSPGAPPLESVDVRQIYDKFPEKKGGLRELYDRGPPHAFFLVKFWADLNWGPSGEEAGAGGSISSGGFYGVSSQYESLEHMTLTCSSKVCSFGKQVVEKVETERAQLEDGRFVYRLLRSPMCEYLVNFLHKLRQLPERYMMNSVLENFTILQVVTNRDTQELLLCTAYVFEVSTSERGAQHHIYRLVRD
Test: TEAD thermal shift assay (TSA)
Assay type: binding
Conditions: ratio of protein to compound 1:3
The entries below are paired with their reported TEAD2 ΔTm.
Give just the number in °C; leave the unit off.

O=C(NCc1ccn[nH]1)c1cnc2c(C3=CCC(C(F)(F)F)CC3)cccc2c1 (centres unmarked)    2
O=C(NCc1ncco1)c1cnc2c(C3=CCC(C(F)(F)F)CC3)cccc2c1 (centres unmarked)    3
C[C@H](NC(=O)c1ccc2c(-c3ccc(C(F)(F)F)cc3)cccc2c1)c1cccc(N)n1 [Compound 1-4, reference compound]    7
COc1cc(C2=CCC(C(F)(F)F)CC2)c2ncc(C(=O)N[C@H](C)c3ncco3)cc2c1 (some centres unmarked)    2

Look up TEAD2 ΔTm for this molecule: C[C@H](CO)NC(=O)c1cnc2c(C3=CCC(C(F)(F)F)CC3)cccc2c1 (some centres unmarked) [Compound 7]
3

Now this one: C[C@H](NC(=O)c1cnc2c(C3=CCC(C(F)(F)F)CC3)cccc2c1)c1ccccn1 (some centres unmarked)
1.5

Let us now turn to COC[C@H](CO)NC(=O)c1cnc2c(C3=CCC(C(F)(F)F)CC3)cccc2c1 (some centres unmarked)
3

Also need C[C@H](NC(=O)c1cnc2c(C3=CC[C@@H](C(F)(F)F)CC3)cccc2c1)c1ncco1 (single isomer, unassigned) [Compound 20] , thanks.
3

Also check C[C@H](NC(=O)c1cnc2c(C3=CC[C@@H](C(F)(F)F)CC3)cccc2c1)c1ncco1 (single isomer, unassigned) [Compound 19]
3

Similarly, C[C@H](CO)NC(=O)c1cnc2c(C3=CCC(C(F)(F)F)CC3)cccc2c1 (single isomer, unassigned) [Compound 81] ?
3

Another molecule: COc1cc(C2=CCC(C(F)(F)F)CC2)c2ncc(C(=O)N[C@H](C)CO)cc2c1 (some centres unmarked)
3

###

Tested on: MSTO-211H xenograft
Test: Inhibition of mouse xenograft MSTO-211H tumors
Assay type: in vivo, BALB/c nude mice
Conditions: day 10 after the start of treatment; 12.5 mg/kg, PO, BID
Description: This study evaluated the in vivo anti-tumor efficacy of test compounds in BALB/c nude mice for treatment of MSTO-211H xenograft of lung cancer. […] The MSTO-211H tumor cells were maintained in RPMI 1640 medium supplemented with 10% Fetal bovine serum and 1% Antibiotic-Antimycotic at 37° C. in an atmosphere of 5% CO2 in air. […] The cells growing in an exponential growth phase with 95% cell survival or above were harvested, and counted for tumor inoculation. […]
Observable: Tumor size (mean) (mm^3)
State just the number; it will be interpreted in mm^3.

COc1cc(C2=CCC(C(F)(F)F)CC2)c2ncc(C(=O)N[C@H](C)CO)cc2c1 (some centres unmarked)    107
C[C@H](CO)NC(=O)c1cnc2c(C3=CCC(C(F)(F)F)CC3)cccc2c1 (some centres unmarked)    124
COc1cc(C2=CCC(C(F)(F)F)CC2)c2ncc(C(=O)N[C@H](C)c3ncco3)cc2c1 (some centres unmarked)    89
C[C@@H](NC(=O)c1cnc2c(C3=CCC4(CC3)CC4)cccc2c1)c1ncco1    153

Continue with the molecule presented below.
What measured Tumor size (mean) goes with COC[C@H](CO)NC(=O)c1cnc2c(C3=CCC(C(F)(F)F)CC3)cccc2c1 (some centres unmarked) ?
149

###

Test system: MSTO-211H xenograft
Experiment: Inhibition of mouse xenograft MSTO-211H tumors
Format: in vivo, BALB/c nude mice
Settings: day 13 after the start of treatment; 12.5 mg/kg, PO, BID
Observable: Tumor size (mean) (mm^3)
State the answer as a number, implicitly in mm^3.

Please review the entries below; each comes with its answer.
COc1cc(C2=CCC(C(F)(F)F)CC2)c2ncc(C(=O)N[C@H](C)c3ncco3)cc2c1 (some centres unmarked)    59
COC[C@H](CO)NC(=O)c1cnc2c(C3=CCC(C(F)(F)F)CC3)cccc2c1 (some centres unmarked)    111
C[C@H](CO)NC(=O)c1cnc2c(C3=CCC(C(F)(F)F)CC3)cccc2c1 (some centres unmarked)    99
C[C@@H](NC(=O)c1cnc2c(C3=CCC4(CC3)CC4)cccc2c1)c1ncco1    145

Look up Tumor size (mean): COc1cc(C2=CCC(C(F)(F)F)CC2)c2ncc(C(=O)N[C@H](C)CO)cc2c1 (some centres unmarked)
75

###

In this section we review reported TEAD4 ΔTm values for a set of compounds.
Molecular target: UniProt:Q15561
Experiment: TEAD thermal shift assay (TSA)
Format: binding
Details: ratio of protein to compound 1:1
Numeric answer plus unit only.

C[C@H](NC(=O)c1cnc2c(C3=CC[C@@H](C(F)(F)F)CC3)cccc2c1)c1ncco1 (single isomer, unassigned) [Compound 19]    2 °C
C[C@H](CO)NC(=O)c1cnc2c(C3=CCC(C(F)(F)F)CC3)cccc2c1 (single isomer, unassigned) [Compound 81]    5 °C
C[C@H](CO)NC(=O)c1cnc2c(C3=CCC(C(F)(F)F)CC3)cccc2c1 (stereo partly shown) [Compound 7]    1.5 °C
O=C(NCc1ncco1)c1cnc2c(C3=CCC(C(F)(F)F)CC3)cccc2c1 (stereo not shown)    1.5 °C
C[C@H](NC(=O)c1cnc2c(C3=CCC(C(F)(F)F)CC3)cccc2c1)c1ccccn1 (stereo partly shown)    2 °C

Entry C[C@H](NC(=O)c1cnc2c(C3=CC[C@@H](C(F)(F)F)CC3)cccc2c1)c1ncco1 (single isomer, unassigned) [Compound 20] has what TEAD4 ΔTm?
1.5 °C

Let us now turn to COC[C@H](CO)NC(=O)c1cnc2c(C3=CCC(C(F)(F)F)CC3)cccc2c1 (stereo partly shown)
2 °C
